Assay: chemical genetic growth profiling, strain panel (AID 1159580);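 note: tested at 20 µM; growth read once vehicle control cultures reached saturation at 30 °C; lower values mean less growth of the strain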
Conditions: S. cerevisiae deletion strains, growth OD, locus YPL078C, strain atp4
In all, about 5,500 compounds went through this assay and about 2,000 (36%) were called active. Inconclusive results (about 18%) are left out. Cut-off read from the data, not from the text of the source: active = normalized growth mostly below about 0.91 (no sharp cut-off); inconclusive = no clear call, values can overlap the other calls; inactive = mostly above about 0.92. This is one part of the list.
Possible outcomes: active, inactive

{"molecule": "CC1(C)O[C@@H]2CC3C4C[C@H](F)C5=CC(=O)C=CC5(C)C4C(O)CC3(C)[C@]2(C(=O)CO)O1 (some centres undefined)", "class label": "inactive"}
{"molecule": "O=c1cc(-c2ccc(O)cc2)oc2ccc(O)cc12", "class label": "inactive"}
{"molecule": "O=c1cc(-c2cccc(O)c2)oc2ccc(O)cc12", "class label": "inactive"}
{"molecule": "CN1CCN2c3ccccc3Cc3ccccc3C2C1 (centres undefined)", "class label": "inactive"}
{"molecule": "CC(=O)O[C@@H]1CC2C(C)(C)CCC(=O)[C@]2(C)C2CC[C@@]3(C)[C@H](c4ccoc4)OC(=O)C4OC43[C@@]21C (some centres undefined)", "class label": "inactive"}
{"molecule": "CC(=O)O[C@H]1C[C@@]2(C)[C@H](c3ccoc3)OC(=O)[C@H]3O[C@]32[C@@]2(C)C1[C@]1(C)C(C[C@H]2OC(C)=O)C(C)(C)[C@H](OC(C)=O)C[C@@H]1OC(C)=O (some centres undefined)", "class label": "inactive"}
{"molecule": "CC(=O)O[C@H]1C[C@@H](O)C(C)(C)C2C[C@@H](OC(C)=O)[C@]3(C)C(CC[C@@]4(C)[C@H](c5ccoc5)OC(=O)C5OC543)[C@]21C (some centres undefined)", "class label": "inactive"}
{"molecule": "CC(=O)O[C@@H]1CC2C(C)(C)[C@H](O)C[C@H](O)[C@]2(C)C2CC[C@@]3(C)[C@H](c4ccoc4)OC(=O)[C@H]4O[C@]43[C@@]21C (some centres undefined)", "class label": "inactive"}
{"molecule": "CC(=O)O[C@@H]1CC2C(C)(C)C(=O)CC[C@]2(C)C2CC[C@@]3(C)[C@H](c4ccoc4)OC(=O)C4OC43[C@@]21C (some centres undefined)", "class label": "inactive"}
{"molecule": "CCN(CC)CCNc1ccc(CO)c2sc3ccccc3c(=O)c12", "class label": "inactive"}
{"molecule": "O=C1c2c(O)ccc(O)c2C(=O)c2c(NCCNCCO)ccc(NCCNCCO)c21", "class label": "inactive"}
{"molecule": "CC[C@]12C=CCN3CC[C@@]4(c5ccc(OC)cc5N(C)C4[C@@](O)(C(=O)OC)[C@@H]1OC(C)=O)[C@@H]32 (some centres undefined)", "class label": "inactive"}
{"molecule": "NC(=O)CC[C@@H](N)C(=O)O", "class label": "inactive"}
{"molecule": "COC(=O)C1=C(C)NC(C)=C(C(=O)OCCN(C)Cc2ccccc2)C1c1cccc([N+](=O)[O-])c1 (centres undefined)", "class label": "inactive"}
{"molecule": "C=CCCCCCCCCCCCC(O)CC(O)CO (centres undefined)", "class label": "inactive"}
{"molecule": "COCCOC(=O)C1=C(C)NC(C)=C(C(=O)OC(C)C)C1c1cccc([N+](=O)[O-])c1 (centres undefined)", "class label": "inactive"}
{"molecule": "O=c1cc(-c2ccc(O)c(O)c2)oc2ccccc12", "class label": "inactive"}
{"molecule": "S=c1ccss1", "class label": "active"}
{"molecule": "CC(C)Oc1ccc2c(=O)cc(-c3ccccc3)oc2c1", "class label": "inactive"}
